Molecular target: N-lysine methyltransferase SMYD2 (Homo sapiens)
Sequence (Q9NRG4 whole entry): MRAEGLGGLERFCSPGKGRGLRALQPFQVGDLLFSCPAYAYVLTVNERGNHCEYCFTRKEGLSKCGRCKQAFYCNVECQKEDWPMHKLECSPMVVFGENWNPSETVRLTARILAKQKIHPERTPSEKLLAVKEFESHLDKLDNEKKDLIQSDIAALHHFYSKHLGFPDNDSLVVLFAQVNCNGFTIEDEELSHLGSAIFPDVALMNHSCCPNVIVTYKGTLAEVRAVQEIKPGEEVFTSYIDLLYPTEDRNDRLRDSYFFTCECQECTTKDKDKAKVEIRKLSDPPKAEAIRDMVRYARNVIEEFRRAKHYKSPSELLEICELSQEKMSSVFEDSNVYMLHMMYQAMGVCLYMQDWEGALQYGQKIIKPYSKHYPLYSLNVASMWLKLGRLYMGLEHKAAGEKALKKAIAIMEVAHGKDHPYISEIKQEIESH
pIC50: −log10 of the molar value.
Mark label 1 for reported pIC50 of 6 or greater; mark label 0 for anything smaller.

Below are worked cases with known answers.
Task: Check this molecule for pIC50 at or above 6: O=C1COc2c(cccc2[C@H](O)CNCCN(C(=O)CCNCCc2ccc(Cl)c(Cl)c2)C2CCCCC2)N1
Output: label 1

Task: Check this molecule for pIC50 at or above 6: O=C1COc2c(CCNCCN(C(=O)CCNCCc3ccccc3)C3CCCC3)ccc(O)c2N1
Output: label 0

Task: Check this molecule for pIC50 at or above 6: O=C(CCNCCc1ccc(Cl)c(Cl)c1)N(CCNCCN1CCCC1)C1CCCCC1
Output: label 0

Please examine the following record next.
Task: Check this molecule for pIC50 at or above 6: O=C1COc2c(cccc2[C@@H](O)CNCCN(C(=O)CCNCCc2ccc(Cl)c(Cl)c2)C2CCCCC2)N1
Output: label 1

The reported measurements were obtained from ChEMBL document CHEMBL3588844.
